Provide the recorded melting point for the entries that follow.

Q: Note down melting point recorded for CCOC(=O)COc1ccc(NC(=O)c2cnc(NC(=N)N)s2)cc1
Result: 218 °C

Q: Note down melting point recorded for CC(C)(C)N1CN(c2ccccc2)C2=NN=CC2=C1N
Result: 174 to 176 °C

Q: Note down melting point recorded for CN(C)c1ccc(C(=O)C(F)(F)c2cccc(Cl)c2)cc1
Result: 104 to 108 °C

Q: Note down melting point recorded for OC(COc1cc(-c2ccccc2)on1)CN1CCOCC1 (stereo not given)
Result: 123 to 124 °C

Q: Note down melting point recorded for Cc1ccc(S(=O)(=O)Oc2ccccc2-c2cc3c(C(N)=O)cccc3[nH]2)cc1
Result: 135 °C

Q: Note down melting point recorded for CCNC(=O)c1ccc(N2CCNCC2)c(F)c1
Result: 142 to 145 °C

Q: Note down melting point recorded for CCOC(=O)C1=C(C#N)Nc2ccnc(OC(C)C)c2C1c1ccccc1C(F)(F)F (stereo not given)
Result: 138 to 140 °C

Q: Note down melting point recorded for O=C(Nc1cc(OCCCO/N=C/c2ccc(C(F)(F)F)cc2)ccc1C(=O)O)c1ccc(C(F)(F)F)cc1
Result: 209 to 210 °C

Q: Note down melting point recorded for Cc1nc(Sc2ccc(N)cc2)nc(C)c1Cl
Result: 160 to 161 °C

Q: Note down melting point recorded for COC(=O)c1nc(-c2cc(N(C)C)c(Cl)cc2F)cc(N)c1Cl
Result: 113 to 115 °C

###

Provide the recorded melting point for the entries that follow.

Q: Note down melting point recorded for CC(O)c1cc(NC(=O)OC(C)(C)C)ccc1NC(=O)OC(C)(C)C (centres undefined)
Result: 189 °C

Q: Note down melting point recorded for CCCCNC(=O)N(C)c1cccc(-c2ccc(C=C(OCC)C(=O)O)cc2)c1
Result: 126 °C

Q: Note down melting point recorded for COC(=O)Nc1nccc(Oc2ccc3c(C(=O)Nc4ccc(CN5CCN(C)CC5)c(C(F)(F)F)c4)csc3c2)n1
Result: 205 to 206 °C

Q: Note down melting point recorded for CCOC(=O)c1c(C)[nH]c2ccccc12
Result: 96 to 98 °C

Q: Note down melting point recorded for COc1cc(OC)c2c(C)c(CCN3CCN(c4cccc(C(F)(F)F)c4)CC3)c(=O)oc2c1
Result: 138 to 139 °C

Q: Note down melting point recorded for COc1ccc(C(=O)Nc2ccc(C(C)(C)CNC(C)=O)c(-c3cccnc3)c2)cc1OC
Result: 234 to 237 °C

Q: Note down melting point recorded for CCCCc1nc2cccnc2n1Cc1ccc2c(Cl)c(C(=O)OC)sc2c1
Result: 127 to 129 °C

Q: Note down melting point recorded for Clc1cnc2cnc(Cl)nc2c1
Result: 177 to 178 °C

Q: Note down melting point recorded for CC1CC(=O)NN=C1c1ccc(-n2ccc(CO)c2)cc1 (centres undefined)
Result: 184 to 186 °C

###

Readout name: melting point

Q: Note down melting point recorded for CCCC12CCC3C4CCCC=C4CCC3C1CCC2O (stereo unspecified)
Result: 115 to 119 °C

Q: Note down melting point recorded for COc1ccc(-c2coc3c(C)c(OCC4CO4)ccc3c2=O)cc1OC (stereo unspecified)
Result: 214 °C

Q: Note down melting point recorded for CC(=O)c1nccc(-c2ccc(Oc3ccc(F)cc3)cc2)n1
Result: 61 to 63 °C

Q: Note down melting point recorded for CC(C)(C)c1cc(CC2CCCCC2=O)cc(C(C)(C)C)c1O (stereo unspecified)
Result: 79 °C

Q: Note down melting point recorded for COc1ccccc1N1CCN(C[C@H]2COc3ccc4nc(C)ccc4c3O2)CC1
Result: 44 to 47 °C

Q: Note down melting point recorded for CCOC(=O)c1c(OCC)nsc1NC(=O)N(CC)CC
Result: 77 to 80 °C

Q: Note down melting point recorded for COc1ccc(S(=O)(=O)C2(C(=O)NO)CCN(Cc3ccc(Br)cc3)CC2)cc1
Result: 180 °C

Q: Note down melting point recorded for Cc1[nH]n(C2CCC2)c2nc(-c3ccncc3)nc(=O)c1-2
Result: 289 to 290 °C

Q: Note down melting point recorded for CCN(CC)CCNC(=O)N(CCS(=O)(=O)c1ccc(OC)cc1)C(C)C
Result: 39.5 to 42 °C

Q: Note down melting point recorded for Cc1c2c(c(Cc3ccc(C(C)C)cc3)c(C)c1NC(=O)NC(C)(C)C)OCC2
Result: 197 to 198 °C

Q: Note down melting point recorded for CS(=O)(=O)N(Cc1cccnc1)c1ccc(Oc2ccccc2)cc1
Result: 139 to 140 °C

Q: Note down melting point recorded for CCCCc1ncc(/C=C(/CO)Cc2cccs2)n1Cc1ccccc1Cl
Result: 114 to 115 °C

Q: Note down melting point recorded for CC(C)(CO)NS(=O)(=O)c1ccc(Cl)c(N)c1
Result: 108 °C

Q: Note down melting point recorded for OC1(C2=NCCCN2)c2ccccc2-c2ccccc21
Result: 242 to 245 °C

Q: Note down melting point recorded for CCCCc1ccc(Nc2cc(C)nc3ccc(OC)cc23)cc1
Result: 200 to 201 °C

Q: Note down melting point recorded for O=C(Nc1ccc(C(F)(F)F)cc1)c1ccccc1NCc1ccncc1
Result: 171 to 175 °C

Q: Note down melting point recorded for CC(C)Cn1cnc2c(NN)nc3ccccc3c21
Result: 202 to 205 °C

Q: Note down melting point recorded for CN1CCc2ccc(OCCCCN3CCN(c4cccc(Cl)c4Cl)CC3)cc2NC1=O
Result: 139 to 140 °C

Q: Note down melting point recorded for CC1CCC(C(C)C)C(OC(=O)[C@H]2C[C@@H]2C(=O)OC2CC(C)CCC2C(C)C)C1 (stereo partly specified)
Result: 95 to 96 °C

Q: Note down melting point recorded for Cc1cnc(N2C(=O)C(O)=C(C(=O)c3ccc(C(C)C)cc3)C2c2ccc(OC(F)(F)F)cc2)cn1 (stereo unspecified)
Result: 266 to 268 °C

Q: Note down melting point recorded for C=CCSC(=S)N1Cc2[nH]c3ccccc3c2CC1C(=O)O (stereo unspecified)
Result: 161 to 162 °C
